- target desc: Polo-like kinase 4 (Plk4) (Homo sapiens, UniProt O00444)
- Sequence (O00444 1-970): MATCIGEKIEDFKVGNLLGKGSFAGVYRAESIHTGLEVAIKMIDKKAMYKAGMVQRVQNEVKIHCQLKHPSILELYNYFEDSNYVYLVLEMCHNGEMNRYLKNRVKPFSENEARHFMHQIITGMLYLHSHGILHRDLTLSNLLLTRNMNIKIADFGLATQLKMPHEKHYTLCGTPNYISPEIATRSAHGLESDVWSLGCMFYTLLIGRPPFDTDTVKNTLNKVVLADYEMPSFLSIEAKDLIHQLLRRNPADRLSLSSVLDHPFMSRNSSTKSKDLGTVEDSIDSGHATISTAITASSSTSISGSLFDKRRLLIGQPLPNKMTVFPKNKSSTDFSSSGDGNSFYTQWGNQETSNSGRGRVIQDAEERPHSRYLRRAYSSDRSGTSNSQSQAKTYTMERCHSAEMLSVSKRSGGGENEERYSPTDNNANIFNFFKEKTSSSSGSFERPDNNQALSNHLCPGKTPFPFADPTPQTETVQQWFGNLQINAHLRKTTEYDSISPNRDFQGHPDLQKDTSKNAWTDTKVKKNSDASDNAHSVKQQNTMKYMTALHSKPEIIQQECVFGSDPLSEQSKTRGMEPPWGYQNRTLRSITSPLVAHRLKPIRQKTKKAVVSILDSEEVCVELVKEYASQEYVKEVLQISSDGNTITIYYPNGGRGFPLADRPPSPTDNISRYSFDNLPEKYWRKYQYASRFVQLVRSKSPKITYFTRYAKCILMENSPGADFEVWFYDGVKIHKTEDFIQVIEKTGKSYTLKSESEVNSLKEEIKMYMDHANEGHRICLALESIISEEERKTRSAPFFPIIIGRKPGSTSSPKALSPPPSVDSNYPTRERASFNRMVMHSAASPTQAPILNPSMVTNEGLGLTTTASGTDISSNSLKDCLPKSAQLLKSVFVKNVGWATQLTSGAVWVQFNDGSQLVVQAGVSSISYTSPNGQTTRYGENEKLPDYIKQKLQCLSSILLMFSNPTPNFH
experimental endpoint: Ki (pM)
Answer in pM, number only, no unit symbol.

Query block: Dear colleague, please send me the reported Ki for "COc1c(Nc2cc(C)[nH]n2)nc(Sc2ccc(S(=O)(=O)Cc3cccc([N+](=O)[O-])c3F)cc2F)nc1N1CCCCC1" when you can.
Result block: 600
